- procedure_text: Partition coefficient (logP)
- Format: physicochemical
- measurement_context: octanol/water
logP less than 1 is 1.0; logP greater than or equal to 1 is 0.0.

# compound, class_name
measured = [
    ("C=C(C)CCOc1ccc(N2C[C@H](COC)OC2=O)cc1", 0.0),
]

Check if logP falls below 1 for COC[C@H]1CN(c2ccc(OCC[C@@H](C)O)cc2)C(=O)O1 . 0.0

// next record COC[C@H]1CN(c2ccc(OCCC(C)=O)cc2)C(=O)O1 0.0

Please answer likewise for COC[C@H]1CN(c2ccc(CCCO)cc2)C(=O)O1 0.0

Follow-up entry: COC[C@H]1CN(c2ccc(OCCO)cc2)C(=O)O1 1.0

----------
- procedure_text: Partition coefficient (logP)
- Type: physicochemical
- measurement_context: octanol/water
Some compounds, each annotated with its measured logP.
# answer = number (no unit)

# compound, meas_value
data = [
    ("COC[C@H]1CN(c2ccc(OCCCCO)cc2)C(=O)O1", 1.84),
    ("COC[C@H]1CN(c2ccc(OCC[C@@H](C)OC)cc2)C(=O)O1", 2.7),
    ("COC[C@H]1CN(c2ccc(OCC[C@@H](O)C(F)(F)F)cc2)C(=O)O1", 2.48),
    ("COC[C@H]1CN(c2ccc(OCC(C)O)cc2)C(=O)O1 (stereo partly specified)", 1.17),
    ("COC[C@H]1CN(c2ccc(OCCCC(C)O)cc2)C(=O)O1 (stereo partly specified)", 2.27),
]

Note: attention shifts to another entry.
What measured logP goes with COC[C@H]1CN(c2ccc(CCO)cc2)C(=O)O1 ? 1.13

----------
- experimental_target: Amine oxidase [flavin-containing] A (Homo sapiens)
- Sequence (P21397 whole entry): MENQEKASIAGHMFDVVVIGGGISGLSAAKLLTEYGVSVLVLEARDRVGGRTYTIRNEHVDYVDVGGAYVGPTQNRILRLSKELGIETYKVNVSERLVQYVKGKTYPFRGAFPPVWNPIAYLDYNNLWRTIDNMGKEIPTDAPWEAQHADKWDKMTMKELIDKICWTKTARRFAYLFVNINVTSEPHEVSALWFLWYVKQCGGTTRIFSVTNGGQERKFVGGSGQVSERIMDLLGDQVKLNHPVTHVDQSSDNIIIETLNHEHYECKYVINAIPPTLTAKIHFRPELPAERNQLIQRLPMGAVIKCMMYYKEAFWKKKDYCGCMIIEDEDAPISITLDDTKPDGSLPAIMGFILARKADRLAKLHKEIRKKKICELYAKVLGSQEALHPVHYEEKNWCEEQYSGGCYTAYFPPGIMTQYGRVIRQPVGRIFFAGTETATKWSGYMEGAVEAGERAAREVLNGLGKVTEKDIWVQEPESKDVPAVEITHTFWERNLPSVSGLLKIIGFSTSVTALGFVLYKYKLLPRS
pKi: −log10 of the molar value.
Rule: pKi of 8 or more gives yes; anything lower gives no.

# compound, class_name
data = [
    ("COC[C@H]1CN(c2ccc(OCC[C@@H](O)C(F)(F)F)cc2)C(=O)O1", "yes"),
    ("COC[C@H]1CN(c2ccc(OCC[C@@H](C)OC)cc2)C(=O)O1", "no"),
    ("C=C(C)CCOc1ccc(N2C[C@H](COC)OC2=O)cc1", "no"),
    ("COC[C@H]1CN(c2ccc(CCO)cc2)C(=O)O1", "no"),
    ("COC[C@H]1CN(c2ccc(OCCC(C)=O)cc2)C(=O)O1", "no"),
]

Given COC[C@H]1CN(c2ccc(CCCO)cc2)C(=O)O1 , state whether its pKi is at least 8. yes

Queued: COC[C@H]1CN(c2ccc(OCCCCO)cc2)C(=O)O1 no

----------
- procedure_text: Logarithm of capacity factor was determined
- Assay type: ADME
Listed molecules paired with reported Log kw
Just the number.

Previously resolved entries follow.
# molecule, Log kw
measured = [
    ("COC[C@H]1CN(c2ccc(CCO)cc2)C(=O)O1", 1),
    ("C=C(C)CCOc1ccc(N2C[C@H](COC)OC2=O)cc1", 3.08),
    ("COC[C@H]1CN(c2ccc(OCCC(C)=O)cc2)C(=O)O1", 1.43),
    ("COC[C@H]1CN(c2ccc(OCC[C@@H](O)C(F)(F)F)cc2)C(=O)O1 [BEFLOXATONE]", 2.45),
]

Query: Log kw; subject: COC[C@H]1CN(c2ccc(OCC(C)O)cc2)C(=O)O1 (stereo partly specified) 1.17

Can you check COC[C@H]1CN(c2ccc(OCCCC(C)O)cc2)C(=O)O1 (stereo partly specified) next? 1.88

Next: COC[C@H]1CN(c2ccc(OCC[C@@H](C)O)cc2)C(=O)O1 1.6

Can you check COC[C@H]1CN(c2ccc(OCCCCO)cc2)C(=O)O1 next? 1.58

Also COC[C@H]1CN(c2ccc(OCC[C@@H](C)OC)cc2)C(=O)O1 , if possible. 2.21

Same again, this time with COC[C@H]1CN(c2ccc(CCCO)cc2)C(=O)O1 1.3

Next record, please: COC[C@H]1CN(c2ccc(OCCO)cc2)C(=O)O1 1

Each recorded value in this set is attributed to ChEMBL document CHEMBL1130827.
